Test system: Mus musculus
Assay: Anticonvulsant activity in CF1 mouse assessed as protection against 32 mA-current- for 3 secs induced seizure at 100 mg/kg, ip after 0.5 hr by 6Hz psychomotor seizure test
Type: functional
Details: route intraperitoneal
So I've got a bunch of compounds here, and I need their Activity values.
Answers are plain numbers, in %.

For orientation, consider the following solved cases.
{"SUBSTANCE_SMILES": "Cc1nc2ccccc2c(=O)n1/N=C/c1ccc(Oc2ccc(Br)cc2)cc1", "SUBJECT_OF_TEST": "Mus musculus", "UNIT_SYMBOL": "%", "Activity": 50}
{"SUBSTANCE_SMILES": "CCCc1nc2ccccc2c(=O)n1/N=C/c1ccc(Oc2ccc(Br)cc2)cc1", "SUBJECT_OF_TEST": "Mus musculus", "UNIT_SYMBOL": "%", "Activity": 25}
{"SUBSTANCE_SMILES": "Cc1cc(Oc2ccc(/C=N/n3c(C)nc4ccccc4c3=O)cc2)ccc1Cl", "SUBJECT_OF_TEST": "Mus musculus", "UNIT_SYMBOL": "%", "Activity": 50}
{"SUBSTANCE_SMILES": "CCCc1nc2ccccc2c(=O)n1/N=C/c1ccc(Oc2ccc3ccccc3c2)cc1", "SUBJECT_OF_TEST": "Mus musculus", "UNIT_SYMBOL": "%", "Activity": 50}

Continue with the next compound.
// query Quote Activity with test system Mus musculus for `Cc1nc2ccccc2c(=O)n1/N=C/c1ccc(Oc2ccc3ccccc3c2)cc1`
// result 50

* * *

Tested on: Mus musculus
Assay: Anticonvulsant activity in CF1 mouse assessed as protection against 32 mA-current- for 3 secs induced seizure at 100 mg/kg, ip after 0.5 hr by 6Hz psychomotor seizure test
Format: functional
Active and inactive are the calls of the source. No cut-off for these calls is given here.
Hi! Could you answer with just one of these? 1 (active), 0 (inactive)

Example cases with answers are listed next.
{"SUBSTANCE_SMILES": "CCCc1nc2ccccc2c(=O)n1/N=C/c1ccc(Oc2ccc(Cl)cc2)cc1", "CAT": 0}
{"SUBSTANCE_SMILES": "CCCc1nc2ccccc2c(=O)n1/N=C/c1ccc(Oc2ccc([N+](=O)[O-])cc2)cc1", "CAT": 0}

// query What outcome does the record of this test show for `CCCc1nc2ccccc2c(=O)n1/N=C/c1ccc(Oc2ccc(F)cc2)cc1` ?
// result 0

// query Field: outcome | Entry: `Cc1cc(Oc2ccc(/C=N/n3c(-c4ccccc4)nc4ccccc4c3=O)cc2)ccc1Cl`
// result 1

// query How was `O=c1c2ccccc2nc(-c2ccccc2)n1/N=C/c1ccc(Oc2ccc3c(c2)OCO3)cc1` classified in this test?
// result 0

* * *

System: Mus musculus
Assay: Anticonvulsant activity in CF1 mouse at 30 to 300 mg/kg, ip by maximal electroshock test
Format: functional, organism-based
The source made the active and inactive calls. The rule behind the calls is not given here.
ASSAY_METRIC: Activity

Please review the entries below; each comes with its answer.
{"SUBSTANCE_SMILES": "O=c1c2ccccc2nc(-c2ccccc2)n1/N=C/c1ccc(Oc2ccc3ccccc3c2)cc1", "SUBJECT_OF_TEST": "Mus musculus", "Activity": "inactive"}
{"SUBSTANCE_SMILES": "O=c1c2ccccc2nc(-c2ccccc2)n1/N=C/c1ccc(Oc2ccc(Cl)cc2)cc1", "SUBJECT_OF_TEST": "Mus musculus", "Activity": "inactive"}
{"SUBSTANCE_SMILES": "Cc1ccc(Oc2ccc(/C=N/n3c(-c4ccccc4)nc4ccccc4c3=O)cc2)cc1", "SUBJECT_OF_TEST": "Mus musculus", "Activity": "inactive"}
{"SUBSTANCE_SMILES": "O=c1c2ccccc2nc(-c2ccccc2)n1/N=C/c1ccc(Oc2ccc([N+](=O)[O-])cc2)cc1", "SUBJECT_OF_TEST": "Mus musculus", "Activity": "inactive"}
{"SUBSTANCE_SMILES": "O=C1Nc2ccccc2/C1=N\\n1c(-c2ccccc2)nc2ccccc2c1=O", "SUBJECT_OF_TEST": "Mus musculus", "Activity": "inactive"}

Switching to the query record.
// query Write down Activity measured for item `O=c1c2ccccc2nc(-c2ccccc2)n1/N=C/c1ccc(Oc2ccccc2)cc1`
// result inactive
